I'd be grateful if you could share measured pIC50 for these entries.
target system: DRB1*0405
measurement notes: binding to purified HLA
Hey, just a heads up that pIC50 is the negative log base 10 of the concentration in molar.

# return recorded pIC50 for entry AAAHFVAAFTLKAEA [H4.F9.E14]
8.09

# return recorded pIC50 for entry AAAEFVAAYTLHAAA [E4.Y9.H12]
7.77

# return recorded pIC50 for entry AAANFVAAYTLHAAA [N4.Y9.H12]
7.72

# return recorded pIC50 for entry AAAHFVAANTLHAAA [H4.N9.H12]
7.74

# return recorded pIC50 for entry AAAEFVAAWTLHAAA [E4.H12]
7.57

The measured values listed here are drawn from patent US20160114035A1.
